Target: T1, TNFR1 (Homo sapiens, UniProt P19438)
T1 chain: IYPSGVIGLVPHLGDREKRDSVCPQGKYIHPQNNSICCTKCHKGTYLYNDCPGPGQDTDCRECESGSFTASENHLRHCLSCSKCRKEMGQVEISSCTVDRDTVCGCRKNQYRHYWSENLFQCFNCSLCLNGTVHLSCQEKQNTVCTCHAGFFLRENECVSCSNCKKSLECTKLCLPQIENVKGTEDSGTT
Test: yeast display SC50
readout: apparent Kd (screen) (nM)
Respond numerically; units are nM and should not be typed.

binder	scale_unit	apparent Kd (screen)
L52K (designed binder) MTLQELLREEALRRAEAEAFRYALELLAEKFPEQKEYLLDLAEEIESQIRSKSGVDVEDVRKFLDKEWAWVKELLAEHPAELAEVEAARAARLAELRAEVEAKVAA	nM	1.05

Consider the record given below.
Task item: If you can, please state the reported apparent Kd (screen) value of L96M (designed binder) MTLQELLREEALRRAEAEAFRYALELLAEKFPEQKEYLLDLAEEIESQIRSLSGVDVEDVRKFLDKEWAWVKELLAEHPAELAEVEAARAARLAEMRAEVEAKVAA .
Reply: 0.718
